System: Quadruplex DNA
experimentSummary: Binding affinity to 6-FAM/TAMRA labeled cMYC G-quadruplex DNA (unknown origin) in potassium cacodylate buffer assessed as change in melting temperature at 1 uM at pH 7.4 by FRET-Based DNA melting assay
Assay type: nucleic-acid assay
readoutName: ΔTm (°C)

{"sampleSmiles": "COc1ccc(-c2ccc3c(c2)c2cc(CNc4ccc([N+](=O)[O-])cc4)ccc2n3CCCN(C)C)cc1", "targetOrSystem": "Quadruplex DNA", "valueUnits": "°C", "quantitativeReadout": 3.4}
{"sampleSmiles": "COc1ccc(-c2ccc3c(c2)c2cc(CNc4nccs4)ccc2n3CCCN(C)C)cc1", "targetOrSystem": "Quadruplex DNA", "valueUnits": "°C", "quantitativeReadout": 3.2}
{"sampleSmiles": "CCCCNCc1ccc2c(c1)c1cc(-c3ccc(OC)cc3)ccc1n2CCCN(C)C", "targetOrSystem": "Quadruplex DNA", "valueUnits": "°C", "quantitativeReadout": 13.6}
{"sampleSmiles": "COc1ccc(-c2ccc3c(c2)c2cc(CNc4ccc(OCCCN(C)C)cc4)ccc2n3CCCN(C)C)cc1", "targetOrSystem": "Quadruplex DNA", "valueUnits": "°C", "quantitativeReadout": 23.4}
{"sampleSmiles": "COc1ccc(-c2ccc3c(c2)c2cc(CNc4ccc(C#CCN(C)C)cc4)ccc2n3CCCN(C)C)cc1", "targetOrSystem": "Quadruplex DNA", "valueUnits": "°C", "quantitativeReadout": 5}
{"sampleSmiles": "COc1ccc(-c2ccc3c(c2)c2cc(CNc4ccc(Br)cc4C)ccc2n3CCCN(C)C)cc1", "targetOrSystem": "Quadruplex DNA", "valueUnits": "°C", "quantitativeReadout": 3.3}
{"sampleSmiles": "COc1ccc(-c2ccc3c(c2)c2cc(CNCCCN(C)C)ccc2n3CCCN(C)C)cc1", "targetOrSystem": "Quadruplex DNA", "valueUnits": "°C", "quantitativeReadout": 5.3}
{"sampleSmiles": "C#CCNCc1ccc2c(c1)c1cc(-c3ccc(OC)cc3)ccc1n2CCCN(C)C", "targetOrSystem": "Quadruplex DNA", "valueUnits": "°C", "quantitativeReadout": 11.8}
{"sampleSmiles": "COc1ccc(-c2ccc3c(c2)c2cc(CNc4ccc(O)cc4)ccc2n3CCCN(C)C)cc1", "targetOrSystem": "Quadruplex DNA", "valueUnits": "°C", "quantitativeReadout": 0.7}
{"sampleSmiles": "COc1ccc(-c2ccc3c(c2)c2cc(CNC4CC4)ccc2n3CCCN(C)C)cc1", "targetOrSystem": "Quadruplex DNA", "valueUnits": "°C", "quantitativeReadout": 3.5}

###

targetOrSystem: Quadruplex DNA
experimentSummary: Binding affinity to cMYC G-quadruplex DNA (unknown origin) in tris-KCL buffer by fluorimetric titration assay
pKd: −log10 of the molar value.
Form field: pKd (one value per entry).

{"sampleSmiles": "COc1ccc(-c2ccc3c(c2)c2cc(CNc4ccc(OCCCN(C)C)cc4)ccc2n3CCCN(C)C)cc1", "pKd": 5.97}
{"sampleSmiles": "C#CCNCc1ccc2c(c1)c1cc(-c3ccc(OC)cc3)ccc1n2CCCN(C)C", "pKd": 5.14}
{"sampleSmiles": "CCCCNCc1ccc2c(c1)c1cc(-c3ccc(OC)cc3)ccc1n2CCCN(C)C", "pKd": 5.24}

###

Test system: dsDNA
experimentSummary: Binding affinity to 6-FAM/TAMRA labeled double stranded DNA (unknown origin) in potassium cacodylate buffer assessed as change in melting temperature at 1 uM at pH 7.4 by FRET-Based DNA melting assay
Format: nucleic-acid assay
readoutName: ΔTm (°C)

{"sampleSmiles": "COc1ccc(-c2ccc3c(c2)c2cc(CNCCCN(C)C)ccc2n3CCCN(C)C)cc1", "valueUnits": "°C", "quantitativeReadout": 7.2}
{"sampleSmiles": "COc1ccc(-c2ccc3c(c2)c2cc(CNc4ccc(OCCCN(C)C)cc4)ccc2n3CCCN(C)C)cc1", "valueUnits": "°C", "quantitativeReadout": 0.58}
{"sampleSmiles": "C#CCNCc1ccc2c(c1)c1cc(-c3ccc(OC)cc3)ccc1n2CCCN(C)C", "valueUnits": "°C", "quantitativeReadout": 8.5}
{"sampleSmiles": "COc1ccc(-c2ccc3c(c2)c2cc(CNc4ccc(C#CCN(C)C)cc4)ccc2n3CCCN(C)C)cc1", "valueUnits": "°C", "quantitativeReadout": 3.79}
{"sampleSmiles": "COc1ccc(-c2ccc3c(c2)c2cc(CNc4ccc(Br)cc4C)ccc2n3CCCN(C)C)cc1", "valueUnits": "°C", "quantitativeReadout": 0.44}
